molecular target: HGF (human, UniProt P14210); test: SPR
Sequence (P14210 32-728): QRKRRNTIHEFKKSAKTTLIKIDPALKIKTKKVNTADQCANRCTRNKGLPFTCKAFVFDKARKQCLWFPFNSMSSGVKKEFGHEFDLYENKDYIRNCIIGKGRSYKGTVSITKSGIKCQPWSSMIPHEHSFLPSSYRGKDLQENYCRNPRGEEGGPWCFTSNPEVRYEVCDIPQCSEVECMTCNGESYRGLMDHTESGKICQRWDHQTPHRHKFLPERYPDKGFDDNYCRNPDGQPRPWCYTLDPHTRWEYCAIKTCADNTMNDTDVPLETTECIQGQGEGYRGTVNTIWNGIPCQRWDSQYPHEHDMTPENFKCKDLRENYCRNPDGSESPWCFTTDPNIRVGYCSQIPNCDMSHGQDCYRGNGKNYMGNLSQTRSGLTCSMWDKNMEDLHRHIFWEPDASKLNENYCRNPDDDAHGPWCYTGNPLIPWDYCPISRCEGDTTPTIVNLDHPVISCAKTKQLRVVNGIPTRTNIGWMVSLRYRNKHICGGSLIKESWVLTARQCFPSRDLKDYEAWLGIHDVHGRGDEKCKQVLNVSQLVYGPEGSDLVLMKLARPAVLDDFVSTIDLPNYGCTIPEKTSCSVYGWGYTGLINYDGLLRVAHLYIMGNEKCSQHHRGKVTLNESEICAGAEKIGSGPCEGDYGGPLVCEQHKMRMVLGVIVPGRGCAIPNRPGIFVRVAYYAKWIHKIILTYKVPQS
pKd: −log10 of the molar value.
property: pKd

binder="DVD034 HGF arm (antibody, V domains shown, DVD-Ig outer) VH: QVQLVESGGGLVKPGGSLRLSCAASGFTFSDYYMSWIRQAPGKGLEWVSYISSSGSTIYYADSVKGRFTISRDNAKNSLYLQMNSLRAEDTAVYYCARDEYNSGWYVLFDYWGQGTLVTVSS VL: DIQMTQSPSSVSASVGDRVTITCRASQGISSWLAWYQQKPGKAPNLLIYEASSLQSGVPSRFGGSGSGTDFTLTISSLQPEDFATYYCQQANGFPWTFGQGTKVEIKR" property=pKd censoring_sign== experimental_result=10.67
binder="DVD026 HGF arm (antibody, V domains shown, DVD-Ig outer) VH: QVQLVESGGGLVKPGGSLRLSCAASGFTFSDYYMSWIRQAPGKGLEWVSYISSSGSTIYYADSVKGRFTISRDNAKNSLYLQMNSLRAEDTAVYYCARDEYNSGWYVLFDYWGQGTLVTVSS VL: DIQMTQSPSSVSASVGDRVTITCRASQGISSWLAWYQQKPGKAPNLLIYEASSLQSGVPSRFGGSGSGTDFTLTISSLQPEDFATYYCQQANGFPWTFGQGTKVEIKR" property=pKd censoring_sign== experimental_result=10.80
binder="DVD025 HGF arm (antibody, V domains shown, DVD-Ig inner) VH: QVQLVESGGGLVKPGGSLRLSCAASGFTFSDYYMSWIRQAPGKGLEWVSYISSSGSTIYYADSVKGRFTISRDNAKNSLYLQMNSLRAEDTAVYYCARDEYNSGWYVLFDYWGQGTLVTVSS VL: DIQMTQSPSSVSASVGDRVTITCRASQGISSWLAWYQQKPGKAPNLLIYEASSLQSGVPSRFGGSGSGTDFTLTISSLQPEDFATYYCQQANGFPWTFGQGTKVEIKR" property=pKd censoring_sign== experimental_result=9.13
binder="DVD046 HGF arm (antibody, V domains shown, DVD-Ig outer) VH: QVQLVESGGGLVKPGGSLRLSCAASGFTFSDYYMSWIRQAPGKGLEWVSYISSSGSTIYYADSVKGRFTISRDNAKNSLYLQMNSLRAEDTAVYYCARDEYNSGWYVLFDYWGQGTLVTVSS VL: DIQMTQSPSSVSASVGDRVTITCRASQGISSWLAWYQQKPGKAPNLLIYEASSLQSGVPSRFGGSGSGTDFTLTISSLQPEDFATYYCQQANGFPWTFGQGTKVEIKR" property=pKd censoring_sign=> experimental_result=10.63
